Data provenance: patent US20130195872A1

MEASUREMENT_TARGET: T1, human IL-17A homodimer (human, UniProt Q16552 20-155, limits assumed)
T1 sequence (looked up): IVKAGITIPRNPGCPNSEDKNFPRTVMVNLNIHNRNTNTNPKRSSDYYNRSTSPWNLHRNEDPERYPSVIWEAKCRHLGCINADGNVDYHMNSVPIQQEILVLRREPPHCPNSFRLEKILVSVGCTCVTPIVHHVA
PROTOCOL_DETAILS: cell-based or functional assay
ATTRIBUTE_MEASURED: IC50, IL-6 secretion by MEF cells, cytokine at 5 ng/ml (nM)
Respond numerically; units are nM and should not be typed.

Exercise: IC50, IL-6 secretion by MEF cells, cytokine at 5 ng/ml for 4H11 antibody (antibody, IgG1, V domains shown, also called Mab09; 4H11 IgG1) VH: EVQLVESGGGLVQPGGSLKLSCAASGFTFSGSSMHWVRQASGKGLDWVGRIRSKANSYATAYAASVIGRFTISRDDSKNTAYLQMNSLKTEDTAVYYCTTSVATTLTDYYGMDVWGQGTTVTVSS VL: EIVLTQSPATLSLSPGERATLSCRASQSVSSYLAWYQQKPGQAPRLLIYDASNRATGIPARFSGSGSGTDFTLTISSLEPEDFAVYYCQQRSNWPPFTFGPGTKVDIK ?
Key: 87

Exercise: IC50, IL-6 secretion by MEF cells, cytokine at 5 ng/ml for 15B7 antibody (antibody, IgG4, V domains shown) VH: QVQLVQSGAEVKKPGSSVKVSCKASGGTLSSYAFSWVRQAPGQGLEWMGGIIPFFGTAHYAQKFQGRVTITADESTNTAYMELSSLRSEDTAVYYCARDRDYYGSGSPFHFSGLDVWGQGTTVTVSS VL: EIVLTQSPDFQSVTPKEKVTITCRASQSIGSSLHWYQQKPDQSPKLLIKYASQSFSGVPSRFSGSGSGTDFTLTINSLEAEDAAAYYCHQSSSLPWTFGQGTKVEIK ?
Key: 180

Exercise: IC50, IL-6 secretion by MEF cells, cytokine at 5 ng/ml for 39F12 antibody (antibody, IgG4, V domains shown, also called Mab06a; 39F12 IgG4) VH: QVQLVQSGAEVKKPGSSVKVSCKASGGTLSSYAFSWVRQAPGQGLEWMGGIIPFFGTTNYAQKFQGRVIITADESTNTAYMELSGLRSEDTAVYYCARDRDYYGLGSPFYYYGMDVWGQGTTVTVSS VL: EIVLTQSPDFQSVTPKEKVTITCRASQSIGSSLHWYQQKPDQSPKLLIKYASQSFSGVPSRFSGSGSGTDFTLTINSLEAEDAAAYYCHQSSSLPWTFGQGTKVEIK ?
Key: 9.8

Exercise: IC50, IL-6 secretion by MEF cells, cytokine at 5 ng/ml for 30D12 antibody (antibody, IgG1, V domains shown, Fully human monoclonal antibody; also called 30D12 IgG1) VH: QVQLVQSGAEVKKPGASVKVSCKASGYTFTSYDINWVRQATGQGLEWMGWMNPDSGVIRYAQKFQGRVTMTRNTSISTAYMELNSLRSEDTAVYYCAREWFGELPSYYFYSGMDVWGQGTTVTVSS VL: EIVLTQSPATLSLSPGERATLSCRASQSVSSYLAWYQQKPGQAPRLLIYDASNRATGIPARFSGSGSGTDFTLTISSLEPEDFAVYYCQQRSNWPPTFGPGTKVDIK ?
Key: 1.1

Exercise: IC50, IL-6 secretion by MEF cells, cytokine at 5 ng/ml for 1E4 antibody (antibody, IgG4, V domains shown) VH: QVQLVQSGAEVKKPGASVKVSCKASVYTFTTYGISWVRQAPGQGLEWMGWISVYNGNTNYGQNFQGRVSMTTDTSTSTAYMELRSLRSDDTAVYYCASFHGGHSGYHYGLDVWGQGTTVTVSS VL: EIVLTQSPATLSLSPGERATLSCRASQSVSSYLAWYQQKPGQAPRLLIYDASNRATGIPARFSGSGSGTDFTLTISSLEPEDFAVYYCQQRSNWPPYTFGQGTKLEIK ?
Key: 480

Others:
Exercise: IC50, IL-6 secretion by MEF cells, cytokine at 5 ng/ml for 29D8 antibody (antibody, IgG1, V domains shown) VH: QVQLVQSGAEVKKPGASVKVSCKAFAYTFSTYGISWVRQAPGQGLEWMGWISAYNSNTNYAQKVQGRITMTTDTSTRTAYMELRGLRSDDTAVYFCATFFGGHSGYHYGLDVWGQGTTVTVSS VL: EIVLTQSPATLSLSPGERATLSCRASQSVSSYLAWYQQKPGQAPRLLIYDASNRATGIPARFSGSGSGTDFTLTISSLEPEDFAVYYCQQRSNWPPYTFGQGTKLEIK ?
Key: 40

Exercise: IC50, IL-6 secretion by MEF cells, cytokine at 5 ng/ml for 8B11 antibody (antibody, IgG3, V domains shown) VH: EVQLVESGGGLVHPGGSLRLSCAASGFTFSSFNMDWVRQAPGKGLEWVSSISTTSRIIYSADSVKGRFTISRDNARNSLYLQMNSLRDEDTAVYYCARVSYYGHGFDYWGQGTLVTVSS VL: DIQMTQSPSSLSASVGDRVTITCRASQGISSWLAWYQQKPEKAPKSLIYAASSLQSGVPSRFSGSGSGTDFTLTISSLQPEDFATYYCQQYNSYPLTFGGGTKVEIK ?
Key: 100

Exercise: IC50, IL-6 secretion by MEF cells, cytokine at 5 ng/ml for 30D12BF antibody (antibody, V domains shown) VH: QVQLVQSGAEVKKPGASVKVSCKASGYTFTSYDINWVRQATGQGLEWMGWLNPDSGVIRYAQKFQGRVTMTRDTSISTAYMELSSLRSEDTAVYYCAREWFGELPSYYFYSGMDVWGQGTTVTVSS VL: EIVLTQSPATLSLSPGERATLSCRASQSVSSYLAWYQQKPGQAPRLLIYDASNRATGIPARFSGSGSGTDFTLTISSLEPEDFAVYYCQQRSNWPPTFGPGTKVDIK ?
Key: 1.6

Exercise: IC50, IL-6 secretion by MEF cells, cytokine at 5 ng/ml for 12B12 antibody (antibody, IgG4, V domains shown) VH: QVQLVQSGAEVKKPGSSVKVSCKASGGTLSSYAFSWVRQAPGQGLEWMGGIIPFFGTVNYAQKFQGRVTITADESTNTAYMELSSLRSEDTAVYYCARDRDYYGLGSPLHYYGLDVWGQGTTVTVSS VL: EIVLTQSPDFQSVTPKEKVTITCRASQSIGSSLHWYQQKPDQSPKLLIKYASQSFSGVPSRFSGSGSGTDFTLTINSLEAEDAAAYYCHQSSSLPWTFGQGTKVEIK ?
Key: 33
